B1: POU domain, class 5, transcription factor 1, residues 134 to 212; numbered along this chain, Q01860 (parent)
chain: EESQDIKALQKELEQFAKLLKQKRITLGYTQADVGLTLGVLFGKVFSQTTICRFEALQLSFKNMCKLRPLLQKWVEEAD

Variants of: B1
testDetails: abundance fitness (aPCA) (normalised: wild type 0, dead -1); higher = more abundant; growth selection in yeast, the domain comes from the species named
runParameters: Homo sapiens
# binarize abundance fitness: threshold -0.5 inclusive, high side y, low side n

sequenceChain | groupLabel
EESQDIKALQKELEQFAKLLKQKRITLGYTQWDVGLTLGVLFGKVFSQTTICRFEALQLSFKNMCKLRPLLQKWVEEAD | n
EESQTIKALQKELEQFAKLLKQKRITLGYTQADVGLTLGVLFGKVFSQTTICRFEALQLSFKNMCKLRPLLQKWVEEAD | y
EESQDIKALQKELDQFAKLLKQKRITLGYTQADVGLTLGVLFGKVFSQTTICRFEALQLSFKNMCKLRPLLQKWVEEAD | n
EESQDIKALQKELEQFAKLLKQKRITLGYTQCDVGLTLGVLFGKVFSQTTICRFEALQLSFKNMCKLRPLLQKWVEEAD | y
EESQDIKALQKELEQFAKLLKQKRITLGYTQADVGLTLGVLFGKVFSQTTICRFEALQLSFKNMCKLRPLPQKWVEEAD | y

Lookup: I'd appreciate it if you could say whether "EESQDIKALQKELEQFAKLLKQKRITLGYTQADVGLTLGVLFGKVFSQTTICRFEALQLSFKNMCKLVPLLQKWVEEAD" has abundance fitness at least equal to -0.5.
Found: n

Lookup: Decide: is the reported value of abundance fitness for "EESQDIKALQKELEQFAKLLKQKRITLGYTQADGGLTLGVLFGKVFSQTTICRFEALQLSFKNMCKLRPLLQKWVEEAD" equal to or greater than -0.5?
Found: n

Lookup: Could you verify whether the entry "EESQDIHALQKELEQFAKLLKQKRITLGYTQADVGLTLGVLFGKVFSQTTICRFEALQLSFKNMCKLRPLLQKWVEEAD" shows abundance fitness of no less than -0.5?
Found: y

Lookup: Check if abundance fitness >= -0.5 (inclusive). Item: "EESQDIKALQKELEQFAKLLKQKRITLGYTQADVGLTLGVLFGKVFSQTTICRFEALKLSFKNMCKLRPLLQKWVEEAD"
Found: y

Lookup: Threshold query (abundance fitness >= -0.5) on "EESQDIKALQKELEQFAKLLKQKRITLGYTQADVGLTLGVLFGKVFSQTTICRFEALQLSFLNMCKLRPLLQKWVEEAD"
Found: n

Lookup: Hello, I need to know if "EESQDIKALQKELEQFAKLLKQKRITDGYTQADVGLTLGVLFGKVFSQTTICRFEALQLSFKNMCKLRPLLQKWVEEAD" has measured abundance fitness not below -0.5. Thanks!
Found: y

Lookup: Could you please find out whether "EESQDIKALQKELEQFAKLLKQKRITLGYTQADVGLTLGVLFGKVFSQTTICRFEALQLSFKNMCKLRPLLQKWVGEAD" has abundance fitness that meets -0.5 or exceeds it?
Found: n

Lookup: Form field: abundance fitness at least -0.5? Entry: "EESQDIKALQKELGQFAKLLKQKRITLGYTQADVGLTLGVLFGKVFSQTTICRFEALQLSFKNMCKLRPLLQKWVEEAD"
Found: y

Lookup: abundance fitness >= -0.5 for "EESQDIKALQKELETFAKLLKQKRITLGYTQADVGLTLGVLFGKVFSQTTICRFEALQLSFKNMCKLRPLLQKWVEEAD" ?
Found: y
